The reported measurements were obtained from PubChem BioAssay (NCI).

System: NCI-H226 lung
ASSAY_SUMMARY: NCI-60 one-dose screen, 48 h (100 = growth as untreated, 0 = no growth, -100 = all killed)
COND: 10 µM
About 83,000 compounds went through this panel and 20% of them were active in at least one assay; those are over-represented in the sample as a whole.
EXPERIMENTAL_READOUT: growth (%)
Number only, in %; omit the unit.

# input Please report growth with NCI-H226 lung for item CN(C)c1ccc(S(=O)(=O)O)cc1 .
# output 96.6

# input Please report growth with NCI-H226 lung for item CC(C)CCOC(=O)c1ccccc1 .
# output 102

# input Please report growth with NCI-H226 lung for item COC1=CC(=O)c2nc(Cl)ccc2C1=O .
# output 26.6

# input Please report growth with NCI-H226 lung for item COC(=O)CCCCC1=CCC2C(=O)C=C(O)C2C1 (stereo not drawn) .
# output 102

# input Please report growth with NCI-H226 lung for item CCCCCCCCCCC(C)Br (stereo not drawn) .
# output 101

# input Please report growth with NCI-H226 lung for item CCCCC(=O)c1ccc(OC)cc1 .
# output 99.7

# input Please report growth with NCI-H226 lung for item COc1ccccc1N1CCN(C(=S)Nc2ccccc2)CC1 .
# output 99.4

# input Please report growth with NCI-H226 lung for item Cc1ccc(C(=O)N/N=C/c2ccc3c(c2)OCO3)cc1 .
# output 101

# input Please report growth with NCI-H226 lung for item O=[N+]([O-])c1ccc(N=Nc2ccccc2)cc1 .
# output 89.4

# input Please report growth with NCI-H226 lung for item CC1=C(/C=C/C(C)=C/C=C/C(C)=C/CO)C(C)(C)CCC1 .
# output 104

# input Please report growth with NCI-H226 lung for item Nc1ccccc1SC(CC(=O)c1ccccc1)c1c(Cl)cccc1Cl (stereo not drawn) .
# output 96.6

# input Please report growth with NCI-H226 lung for item COC(=O)Nc1nc2ccc(C(=O)c3cccs3)cc2[nH]1 .
# output 0.146

# input Please report growth with NCI-H226 lung for item OC1OC(COC(c2ccccc2)(c2ccccc2)c2ccccc2)C(O)C(O)C1O (stereo not drawn) .
# output 90.1
